Give measured KI (inactivation) for each item. Keep answers brief.
Target: CalASADH (C. albicans ASADH, aspartate semialdehyde dehydrogenase) (Candida albicans)
Construct: gene HOM2; catalytic Cys-156; PDB 3hsk used as docking model of the same protein; ATCC 10231 is only the growth-test strain
Test: time-dependent inactivation, NADPH formation at […] nm, kobs = kinact[I]/(Ki+[I])
Format: biochemical
Settings: covalent; irreversible inactivation; residual activity read at pH 8.6 with 0.3 mM L-aspartate-beta-semialdehyde, 20 mM phosphate, 1.5 mM NADP
Answers are plain numbers, in nM.

>>> observed_measurement("CS(=O)(=O)/C=C/c1ccc2ccccc2n1")
960
>>> observed_measurement("CS(=O)(=O)/C=C/c1ccc(C(N)=O)cc1 [compound 3, vinyl sulfone, R1 methyl, R2 benzamide]")
531000
>>> observed_measurement("CS(=O)(=O)/C=C/c1cccc2cnccc12")
650
>>> observed_measurement("NC(=O)/C=C/S(=O)(=O)c1ccccc1 [compound 13, sulfonyl acrylamide, R1 phenyl, R2 amide]")
2300
>>> observed_measurement("O=S(=O)(/C=C/c1ccncc1)c1ccccn1")
2200
>>> observed_measurement("NC(=O)/C=C/c1ccncc1 [compound 25, acrylamide, R1 amino, R2 4-pyridinyl]")
3790
>>> observed_measurement("CS(=O)(=O)CC(=O)c1ccccc1")
2200
>>> observed_measurement("O=C(/C=C/c1ccncc1)N1CCOCC1")
4410

Report KI (inactivation) for each item below.
1. CC(=O)CS(C)(=O)=O
2. O=S(=O)(/C=C/c1cccc2cnccc12)C1CC1
3. CS(=O)(=O)CC(=O)c1ccccn1
4. CS(=O)(=O)CC(=O)c1ccncc1
5. CS(=O)(=O)/C=C/c1ccc([N+](=O)[O-])s1

31700
2480
6080
59000
2100

###

Molecular target: CalASADH (C. albicans ASADH, aspartate semialdehyde dehydrogenase) (Candida albicans, UniProt Q5ALM0)
Construct: gene HOM2; catalytic Cys-156; PDB 3hsk used as docking model of the same protein; ATCC 10231 is only the growth-test strain
Sequence (Q5ALM0 whole entry): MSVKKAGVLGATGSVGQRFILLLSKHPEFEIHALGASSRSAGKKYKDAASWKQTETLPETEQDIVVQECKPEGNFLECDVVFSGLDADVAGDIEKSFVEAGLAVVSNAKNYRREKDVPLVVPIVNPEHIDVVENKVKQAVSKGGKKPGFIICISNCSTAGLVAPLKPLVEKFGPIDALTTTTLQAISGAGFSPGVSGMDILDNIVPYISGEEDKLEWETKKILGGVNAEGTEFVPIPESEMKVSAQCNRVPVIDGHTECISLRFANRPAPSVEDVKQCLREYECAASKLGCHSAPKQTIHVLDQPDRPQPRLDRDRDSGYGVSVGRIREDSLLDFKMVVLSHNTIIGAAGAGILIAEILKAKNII
Assay: time-dependent inactivation, NADPH formation at […] nm, kobs = kinact[I]/(Ki+[I])
Assay type: biochemical
Settings: covalent; irreversible inactivation; residual activity read at pH 8.6 with 0.3 mM L-aspartate-beta-semialdehyde, 20 mM phosphate, 1.5 mM NADP
parameter-measured: KI (inactivation) (µM)
Numbers only, in µM.

Reference set (3 entries):
>>> observed_measurement("CS(=O)(=O)/C=C/c1ccc(O)cn1 [compound 4]")
0.61
>>> observed_measurement("CS(=O)(=O)/C=C/C(N)=O [compound 12, sulfonyl acrylamide, R1 methyl, R2 amide]")
2.7
>>> observed_measurement("N[C@@H](C/C=C/S(=O)(=O)C1CC1)C(=O)O [compound 18, vinyl sulfone, R1 cyclopropyl, R2 alanyl]")
0.39

Consider the additional compound presented here.
Please report the recorded KI (inactivation) for CN(C)S(=O)(=O)/C=C/C[C@H](N)C(=O)O [compound 15] .
27.9
